# Assayed system: LRRK2 (Homo sapiens, UniProt Q5S007)
# Sequence (Q5S007 970-2527 limits assumed): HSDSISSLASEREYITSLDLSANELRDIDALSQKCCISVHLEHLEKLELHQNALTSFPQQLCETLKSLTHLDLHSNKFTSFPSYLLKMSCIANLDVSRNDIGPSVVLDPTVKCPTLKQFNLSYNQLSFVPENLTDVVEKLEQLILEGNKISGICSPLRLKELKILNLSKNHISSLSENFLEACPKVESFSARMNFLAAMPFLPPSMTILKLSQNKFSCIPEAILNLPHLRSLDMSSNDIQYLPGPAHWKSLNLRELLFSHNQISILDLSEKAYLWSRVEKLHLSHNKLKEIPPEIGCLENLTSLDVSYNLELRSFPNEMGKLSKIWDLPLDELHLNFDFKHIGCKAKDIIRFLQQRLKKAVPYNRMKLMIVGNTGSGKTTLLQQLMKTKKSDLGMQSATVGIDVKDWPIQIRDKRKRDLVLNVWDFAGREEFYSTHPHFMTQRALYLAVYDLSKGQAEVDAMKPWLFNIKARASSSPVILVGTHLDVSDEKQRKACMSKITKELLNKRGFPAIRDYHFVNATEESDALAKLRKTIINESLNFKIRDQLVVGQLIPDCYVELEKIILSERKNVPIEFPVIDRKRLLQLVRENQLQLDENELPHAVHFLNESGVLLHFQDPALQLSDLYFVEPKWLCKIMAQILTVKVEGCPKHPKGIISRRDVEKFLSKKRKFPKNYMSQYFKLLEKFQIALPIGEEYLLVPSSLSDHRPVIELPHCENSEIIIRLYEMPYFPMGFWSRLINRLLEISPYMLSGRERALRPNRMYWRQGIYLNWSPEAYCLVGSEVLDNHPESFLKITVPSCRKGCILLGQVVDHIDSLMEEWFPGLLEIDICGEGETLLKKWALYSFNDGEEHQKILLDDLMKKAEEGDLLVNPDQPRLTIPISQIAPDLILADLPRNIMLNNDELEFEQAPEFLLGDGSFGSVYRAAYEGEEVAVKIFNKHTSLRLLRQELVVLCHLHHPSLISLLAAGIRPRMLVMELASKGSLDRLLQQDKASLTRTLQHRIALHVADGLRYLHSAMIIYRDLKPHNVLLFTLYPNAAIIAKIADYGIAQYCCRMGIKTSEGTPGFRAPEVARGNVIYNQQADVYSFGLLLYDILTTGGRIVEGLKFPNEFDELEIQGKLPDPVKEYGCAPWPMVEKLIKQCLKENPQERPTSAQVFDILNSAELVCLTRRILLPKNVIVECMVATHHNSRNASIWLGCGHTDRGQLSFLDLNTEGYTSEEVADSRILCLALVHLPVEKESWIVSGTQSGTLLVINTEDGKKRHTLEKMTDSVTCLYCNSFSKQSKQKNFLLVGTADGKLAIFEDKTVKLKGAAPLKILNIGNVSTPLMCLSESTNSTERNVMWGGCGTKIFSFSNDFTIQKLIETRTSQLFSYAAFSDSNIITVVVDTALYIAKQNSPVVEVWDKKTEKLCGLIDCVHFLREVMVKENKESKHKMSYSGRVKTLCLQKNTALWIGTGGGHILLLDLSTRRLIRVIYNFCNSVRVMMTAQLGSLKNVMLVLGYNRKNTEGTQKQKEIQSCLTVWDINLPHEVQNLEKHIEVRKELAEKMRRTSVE
# Assay details: LRRK2 enzyme inhibition, ADP-Glo kinase assay
# Type: biochemical
# Design: purchased Invitrogen PR8604B
# Conditions: ATP 10 μM
pIC50: −log10 of the molar value.
Reported pIC50 values for the following molecules.

[[record]]
compound_string = "CCCNc1nc(Nc2ccc(S(C)(=O)=O)cc2OC)nc2[nH]cc(C(F)(F)F)c12"
result_type = "pIC50"
value_reported = "6.52 to 7.00"

[[record]]
compound_string = "CC(C)CNc1nc(Nc2ccc(C(=O)N3CCC(N4CCOCC4)CC3)c3c2OCC3)nc2[nH]cc(C(F)(F)F)c12"
result_type = "pIC50"
value_reported = "> 7.00"

[[record]]
compound_string = "COCC(C)(C)Nc1nc(Nc2ccc(S(C)(=O)=O)cc2OC)nc2[nH]cc(C(F)(F)F)c12"
result_type = "pIC50"
value_reported = "6.00 to 6.52"


Shift focus to the following entry.
Entry `COc1cc(S(=O)(=O)N2CCC(N3CCOCC3)CC2)ccc1Nc1nc(NC2CC2)c2c(C#N)c[nH]c2n1` needs its pIC50 filled in; supply it.
> 7.00

* * *

# Assayed system: human GST-DYRK1A (Homo sapiens, UniProt Q13627)
# Construct: purified human GST-DYRK1A (full length, Thermo Scientifics) enzyme; purchased Thermo Scientifics
# Assay details: GST-DYRK1A enzyme inhibition, ADP-Glo kinase assay
# Type: biochemical
# Conditions: ATP 10 μM, GST-DYRK1A full length, read-out: DYRK1 IC50
Result type: IC50

// worked examples, IC50 included
[[record]]
compound = "O=C(c1ccc(Nc2nc(NC3CCOCC3)c3cc[nH]c3n2)c2c1OCCO2)N1CCOCC1 [Example 52, 2,2,2-trifluoroacetate]"
value_reported = "0.301 to 1 µM"

[[record]]
compound = "CC(C)Nc1nc(Nc2ccc(C(=O)N3CCOCC3)c3c2OCCO3)nc2[nH]ccc12 [Example 45, 2,2,2-trifluoroacetate]"
value_reported = "0.301 to 1 µM"

[[record]]
compound = "CNc1nc(Nc2ccc(P3(=O)CCN(C4CCOCC4)CC3)cc2OC)nc2[nH]cc(C(F)(F)F)c12 [Example 436]"
value_reported = "< 0.1 µM"

[[record]]
compound = "COc1cc(P(C)(C)=O)ccc1Nc1nc(NCC(C)C)c2c(C(F)(F)F)c[nH]c2n1 [Example 370]"
value_reported = "0.301 to 1 µM"

[[record]]
compound = "CC(C)Nc1nc(Nc2ccc(C(=O)N3CCOCC3)c3c2OCCO3)nc2[nH]cc(C#N)c12 [Example 122]"
value_reported = "0.101 to 0.3 µM"

[[record]]
compound = "CC[C@H](C)Nc1nc(Nc2ccc(C(=O)N3CCC(N4CCOCC4)CC3)c3c2OCC3)nc2[nH]cc(C#N)c12 [Example 357]"
value_reported = "0.301 to 1 µM"


Entry CCCNc1nc(Nc2ccc(S(=O)(=O)N3CCOCC3)cc2OC)nc2[nH]cc(C(F)(F)F)c12 [Example 372] needs its IC50 filled in; supply it.
0.301 to 1 µM

Entry CNc1nc(Nc2ccc(P3(=O)CCN(C4CC4)CC3)cc2OC)nc2[nH]cc(C(F)(F)F)c12 [Example 216] needs its IC50 filled in; supply it.
0.101 to 0.3 µM

Entry CCNc1nc(Nc2ccc(C(=O)N3CC[C@@H](N4CCOCC4)C3)c3c2OCC3)nc2[nH]cc(C(F)(F)F)c12 [Example 476] needs its IC50 filled in; supply it.
< 0.1 µM

Entry CCNc1nc(Nc2ccc(P3(=O)CCN(C4CC4)CC3)cc2OC)nc2[nH]cc(C(F)(F)F)c12 [Example 398] needs its IC50 filled in; supply it.
0.101 to 0.3 µM

Entry COc1cc(S(=O)(=O)N2CCC(N3CCOCC3)CC2)ccc1Nc1nc(NCC(C)C)c2c(C#N)c[nH]c2n1 [Example 84] needs its IC50 filled in; supply it.
0.301 to 1 µM

Entry O=C(c1ccc(Nc2nc(N[C@H]3CCOC3)c3cc[nH]c3n2)c2c1OCCO2)N1CCOCC1 [Example 51] needs its IC50 filled in; supply it.
0.301 to 1 µM

Entry O=C(c1ccc(Nc2nc(N[C@H]3CCOC3)c3c(C(F)(F)F)c[nH]c3n2)c2c1OCCO2)N1CCN(C2COC2)CC1 [Example 418] needs its IC50 filled in; supply it.
< 0.1 µM

Entry CNc1nc(Nc2ccc(C(=O)N3CCOCC3)c3c2OCO3)nc2[nH]cc(C(F)(F)F)c12 [Example 214] needs its IC50 filled in; supply it.
< 0.1 µM

Entry CC[C@H](C)Nc1nc(Nc2ccc(S(=O)(=O)N3CCC(N4CCOCC4)CC3)cc2OC)nc2[nH]ccc12 [Example 17] needs its IC50 filled in; supply it.
0.301 to 1 µM

* * *

# Assayed system: CLK2 (Homo sapiens, UniProt P49760)
# Construct: purchased DiscoverX Corp. (ScanMAX Kinase analysis panel, service)
# Sequence (P49760 whole entry): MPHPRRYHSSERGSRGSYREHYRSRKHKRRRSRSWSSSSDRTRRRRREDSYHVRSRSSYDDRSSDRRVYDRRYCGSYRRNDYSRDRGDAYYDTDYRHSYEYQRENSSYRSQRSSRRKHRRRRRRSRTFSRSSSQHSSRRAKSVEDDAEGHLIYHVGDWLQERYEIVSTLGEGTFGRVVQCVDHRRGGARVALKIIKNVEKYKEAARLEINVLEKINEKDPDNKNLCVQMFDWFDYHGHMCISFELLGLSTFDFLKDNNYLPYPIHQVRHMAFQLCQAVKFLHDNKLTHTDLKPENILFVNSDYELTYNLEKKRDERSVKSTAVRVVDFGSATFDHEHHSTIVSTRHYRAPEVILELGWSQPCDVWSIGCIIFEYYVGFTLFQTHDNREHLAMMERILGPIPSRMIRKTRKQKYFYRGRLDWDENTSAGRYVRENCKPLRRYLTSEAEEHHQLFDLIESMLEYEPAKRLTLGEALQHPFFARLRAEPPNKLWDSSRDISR
# Assay details: ScanMAX Kinase analysis panel, CLK2
# Format: binding
# Conditions: 1 μM in DMSO; <35% considered inhibitory; read-out: percent control (% control), CLK2
Result type: remaining binding at 1 µM (%)

// worked examples, remaining binding at 1 µM included
[[record]]
compound = "CCCNc1nc(Nc2ccc(S(=O)(=O)N3CCC(N4CCOCC4)CC3)cc2OC)nc2[nH]cc(C(F)(F)F)c12"
value_reported = 3.9

[[record]]
compound = "CNc1nc(Nc2ccc(P3(=O)CCN(C4CC4)CC3)cc2OC)nc2[nH]cc(C(F)(F)F)c12"
value_reported = 0

[[record]]
compound = "O=C(c1ccc(Nc2nc(C3CC3)c3c(C(F)(F)F)c[nH]c3n2)c2c1OCCO2)N1CCC(N2CCOCC2)CC1"
value_reported = 5.5


[P] C=CCNc1nc(Nc2ccc(S(=O)(=O)N3CCC(N4CCOCC4)CC3)cc2OC)nc2[nH]cc(C#N)c12
[Q] CNc1nc(Nc2ccc(C(=O)N3CCC(N4CCOCC4)CC3)c3c2OCCO3)nc2[nH]cc(C(F)(F)F)c12
[R] CCNc1nc(Nc2ccc(S(=O)(=O)N3CCC(N4CCOCC4)CC3)cc2OC)nc2[nH]cc(C(F)(F)F)c12 [Example 158, 2,2,2-trifluoroacetate]
Please give the order of these compounds when sorted by remaining binding at 1 µM, largest value leading. // format: requested-order list of labels
R, P, Q
(R: 22%, P: 3.9%, Q: 0.65%)

* * *

Entries below carry reported IC50 on human GST-DYRK1A (Homo sapiens, UniProt Q13627).

[[record]]
compound = "CC(C)CNc1nc(Nc2ccc(C(=O)N3CCOCC3)c3c2OCC3)nc2[nH]cc(C#N)c12 [Example 350]"
value_reported = "301 to 1000 nM"

[[record]]
compound = "COc1cc(P(C)(C)=O)ccc1Nc1nc(NCC2CCC2)c2c(C(F)(F)F)c[nH]c2n1 [Example 391]"
value_reported = "301 to 1000 nM"

[[record]]
compound = "N#Cc1c[nH]c2nc(Nc3ccc(C(=O)N4CCOCC4)c4c3OCCO4)nc(NC3CCCC3)c12 [Example 126]"
value_reported = "301 to 1000 nM"

[[record]]
compound = "COc1cc(S(=O)(=O)N2CCC(N3CCOCC3)CC2)ccc1Nc1nc(NCC2CCCC2)c2c(C(F)(F)F)c[nH]c2n1 [Example 195]"
value_reported = "301 to 1000 nM"

[[record]]
compound = "COCC(C)(C)Nc1nc(Nc2ccc(S(=O)(=O)N3CCC(N4CCOCC4)CC3)cc2OC)nc2[nH]ccc12 [Example 35]"
value_reported = "301 to 1000 nM"

[[record]]
compound = "COc1cc(S(C)(=O)=O)ccc1Nc1nc(NCC(C)C)c2cc[nH]c2n1 [Example 12, 2,2,2-trifluoroacetate]"
value_reported = "301 to 1000 nM"

[[record]]
compound = "COCC(C)(C)Nc1nc(Nc2ccc(S(=O)(=O)N3CCC(N4CCOCC4)CC3)cc2OC)nc2[nH]cc(C#N)c12 [Example 93]"
value_reported = "301 to 1000 nM"

[[record]]
compound = "COCCNc1nc(Nc2ccc(C(=O)N3CCC(N4CCOCC4)CC3)c3c2OCCO3)nc2[nH]cc(C#N)c12 [Example 256]"
value_reported = "< 100 nM"


Entry CNc1nc(Nc2ccc(S(=O)(=O)N3CCC(N4CCOCC4)CC3)cc2OC)nc2[nH]ccc12 [Example 3, 2,2,2-trifluoroacetate] needs its IC50 filled in; supply it.
301 to 1000 nM

Entry CNc1nc(Nc2ccc(C(=O)N3CC(CO)(CO)C3)c3c2OCCO3)nc2[nH]cc(C#N)c12 [Example 325] needs its IC50 filled in; supply it.
101 to 300 nM

Entry COc1cc(P2(=O)CCN(C3CC3)CC2)ccc1Nc1nc(NCC2CC2)c2c(C#N)c[nH]c2n1 [Example 304] needs its IC50 filled in; supply it.
301 to 1000 nM

Entry COc1cc(S(C)(=O)=O)ccc1Nc1nc(NC(C)C)c2cc[nH]c2n1 [Example 14, 2,2,2-trifluoroacetate] needs its IC50 filled in; supply it.
301 to 1000 nM

Entry CCNc1nc(Nc2ccc(S(=O)(=O)N3CCC(N4CCOCC4)CC3)c3c2OCCO3)nc2[nH]cc(C(F)(F)F)c12 [Example 430] needs its IC50 filled in; supply it.
301 to 1000 nM

This collection of values is drawn from patent US20230066011A1.
